Please respond with reported IC50 for every item in the list.
- testedSystem: human plasma protein factor Xa (Homo sapiens, UniProt P00742)
- Construct: The human plasma protein factor Xa was purchased
- Sequence (P00742 235-488 limits assumed): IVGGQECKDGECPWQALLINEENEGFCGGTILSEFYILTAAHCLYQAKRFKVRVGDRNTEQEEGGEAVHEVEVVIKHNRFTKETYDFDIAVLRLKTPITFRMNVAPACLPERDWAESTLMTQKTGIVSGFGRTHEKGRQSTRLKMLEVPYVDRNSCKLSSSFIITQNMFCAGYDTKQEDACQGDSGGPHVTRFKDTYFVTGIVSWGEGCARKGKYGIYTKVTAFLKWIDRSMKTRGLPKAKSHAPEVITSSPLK
- Sequence (P00742 41-179 partner limits assumed): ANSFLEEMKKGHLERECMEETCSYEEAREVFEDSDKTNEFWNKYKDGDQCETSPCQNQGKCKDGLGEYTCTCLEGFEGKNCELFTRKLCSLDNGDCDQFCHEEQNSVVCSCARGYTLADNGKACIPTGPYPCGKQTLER
- assayNotes: Factor Xa IC50 determination (cleavage of paranitroanilide substrate S-2765)
- protocolConditions: factor Xa 1 nM, S-2765 100 μM, Tris buffered saline pH 7.4, read at 405 nm

Ask: Respond only with IC50 recorded for CN(C)CC[N+](C)(C)CCOc1cc(-n2ccccc2=O)ccc1-n1cc(CNC(=O)c2ccc(Cl)s2)nn1 [Compound 86]
Result: ≤ 100 nM

Ask: Respond only with IC50 recorded for O=C(NCc1cn(-c2ccc(-n3ccccc3=O)cc2N2CCC[C@@H](O)C2)nn1)c1ccc(Cl)s1 [Compound 22]
Result: ≤ 100 nM

Ask: Respond only with IC50 recorded for O=C(NCc1cn(-c2ccc(N3CCCCC3=O)cc2N2CCSCC2)nn1)c1ccc(Cl)s1 [Compound 157]
Result: ≤ 100 nM

Ask: Respond only with IC50 recorded for NCc1cc(-n2ccccc2=O)ccc1-n1cc(CNC(=O)c2ccc(Cl)s2)nn1 [Compound 120]
Result: ≤ 100 nM

Ask: Respond only with IC50 recorded for O=C(NCc1nnn(-c2ccc(-n3ccccc3=O)cc2OC[C@H](O)CO)c1I)c1ccc(Cl)s1 [Compound 154]
Result: 100 to 500 nM

Ask: Respond only with IC50 recorded for O=C(NCc1cn(-c2ccc(-n3ccccc3=O)cc2-c2ccc(O)nc2)nn1)c1ccc(Cl)s1 [Compound 142]
Result: ≤ 100 nM

Ask: Respond only with IC50 recorded for NC(=O)CNC(=O)c1cc(-n2ccccc2=O)ccc1-n1cc(CNC(=O)c2ccc(Cl)s2)nn1 [Compound 108]
Result: 100 to 500 nM

Ask: Respond only with IC50 recorded for CNCCN(C)C(=O)c1cc(-n2ccccc2=O)ccc1-n1cc(CNC(=O)c2ccc(Cl)s2)nn1 [Compound 110]
Result: 100 to 500 nM

Ask: Respond only with IC50 recorded for Nc1cc(-n2ccccc2=O)ccc1-n1cc(CNC(=O)c2ccc(Cl)s2)nn1 [Compound 45]
Result: ≤ 100 nM

Ask: Respond only with IC50 recorded for O=C(NCc1cn(-c2ccc(-n3ccccc3=O)cc2OCCc2ccncc2)nn1)c1ccc(Cl)s1 [Compound 91]
Result: ≤ 100 nM

Ask: Respond only with IC50 recorded for C[S+]([O-])c1cc(-n2ccccc2=O)ccc1-n1cc(CNC(=O)c2ccc(Cl)s2)nn1 (stereo not shown) [Compound 51]
Result: ≤ 100 nM

Ask: Respond only with IC50 recorded for O=C(NCc1cn(-c2ccc(-n3ccccc3=O)cc2CN2CCS(=O)(=O)CC2)nn1)c1ccc(Cl)s1 [Compound 163]
Result: ≤ 100 nM

Ask: Respond only with IC50 recorded for O=C(NCc1cn(-c2ccc(-n3ccccc3=O)cc2OCc2nnn[nH]2)nn1)c1ccc(Cl)s1 [Compound 98]
Result: ≤ 100 nM

Ask: Respond only with IC50 recorded for O=C(NCc1cn(-c2ccc(-n3ccccc3=O)cc2-n2ccnc2)nn1)c1ccc(Cl)s1 [Compound 42]
Result: ≤ 100 nM

Ask: Respond only with IC50 recorded for O=C(NCc1cn(-c2ccc(-n3ccccc3=O)cc2Oc2ccccn2)nn1)c1ccc(Cl)s1 [Compound 151]
Result: ≤ 100 nM

Ask: Respond only with IC50 recorded for O=C(NCc1cn(-c2ccc(-n3ccccc3=O)cc2OCc2ccccn2)nn1)c1ccc(Cl)s1 [Compound 169]
Result: ≤ 100 nM
